meta.source: patent US20240317840A1

Molecular target: T1, HBsAg AD serotype (Hepatitis B virus)
T1 construct: also called HBsAg serotype AD
Assay: SPR epitope binning; competitor (1st, saturating Ab): CR8087
READOUT TYPE: binding of second antibody

Examples with their reported binding of second antibody follow.
NOV3841 (antibody, human IgG1, lambda, V domains shown, Full human IgG1 (lambda) expressed in CHO cells) VH: EVQLLESGGGLVQPGGSRRLSCAASGFTFSYYGMNWVRQAPGKGLEWVSGITQSGSITYYADTVKGRFSISRDNSKNTLFLQMNSLRAEDTAVYYCAKVGVRSSSGMWDLDYWGQGTLVTVSS VL: SYVLTQPPSVSVAPGQTARLSCGGNNIGSKSLQWYQQKPGQAPVLVVNDESDRPSGIPERFSGSNSGNTATLTISRVEAGDEADYYCQVWDTSSDHVVFGGGTKLTVLG
282 % of its binding as first antibody
NOV3832 (antibody, human IgG1, lambda, V domains shown, Full human IgG1 (lambda) expressed in CHO cells) VH: EMQVLESGGGLVQPGGSLRLSCAASGFTFDNYAMSWVRQVPGKGLEWVSSISGSGGSTYYADSVKGQFTISRDNSKNTLYLQMNSLRAEDTAVYYCAKSSILSGGHARVYGIDVWGQGTTVTVSS VL: QSALTQPPSVSVAPGQTARITCGGNNIGSQSVHWYQQKPGQAPILVVYDDTDRPSGIPARFSGSSSGSTATLTIGRVEAGDEADYYCQVWDSSSDHVVFGGGTKLTVLS
223 % of its binding as first antibody
NOV3842 (antibody, human IgG1, lambda, V domains shown, Full human IgG1 (lambda) expressed in CHO cells) VH: EVQLLESGGGLVQPGGSRRLSCAASGFTFSYYGMNWVRQAPGKGLEWVSGITNVGSITYYADTVKGRFSISRDNSKNTLFLQMNSLRAEDTAVYYCAKVGVRSSSGMWDLDYWGQGTLVTVSS VL: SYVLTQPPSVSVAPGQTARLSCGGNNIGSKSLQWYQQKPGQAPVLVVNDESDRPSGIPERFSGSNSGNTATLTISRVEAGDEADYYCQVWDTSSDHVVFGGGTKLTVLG
216 % of its binding as first antibody

# evaluate next
input: What value of measured binding of second antibody is listed for NOV3540 (antibody, human IgG1, kappa, V domains shown, Full human IgG1 (kappa) expressed in CHO cells) VH: EVQLLESGGGLVQPGGSLRLSCAASGFTFSPHAMSWVRQAPGKGLEWVSAISDSGGSTHYADSVKGRFTISRDNSKNTLYLQMNSLRAEDTAVYYCARDDDAWSGYDYWFDYWGQGTLVTVSS VL: DIQMTQSPSSLSASVGDRVTITCRASQSISPYLNWYQQKPGKAPKLLIYAADSLQSGVPSRFSGSGSGTDFTLTISSLQPEDFATYYCQQSYKIPLTFGQGTKVEIKR ?
output: 254 % of its binding as first antibody
